Data origin, for the record: PubChem BioAssay AID330

System: P388 leukemia ip, CD2F1 mice, survival T/C
TEST METHOD NOTES: NCI In Vivo Anticancer Drug Screen. Data for tumor model P388 Leukemia (intraperitoneal) in CD2F1 (CDF1) mice
MEASUREMENT SETUP: endpoint: median survival time; dose: 6.25 mg/kg/injection; schedule: Q01DX009 (ip); vehicle: saline with Tween-80
Toxic doses and inconclusive results are not listed. Rule for the calls: active = survival T/C of 150% or more; inactive = T/C below 125% in these data.
Choose one outcome from this list and give only that: True for active, False for inactive

Below are worked cases with known answers.
COMPOUND: Cc1ccc(NCCNCCO)c2c(=O)c3cc(O)ccc3sc12
CLASSIFICATION: True

COMPOUND: O=C1O/C(=C2/OC(=O)c3ccccc32)c2ccccc21
CLASSIFICATION: False

COMPOUND: C=C/C(C)=C/[C@H](C)C(=O)C[C@H](O)CC1CC(=O)NC(=O)C1
CLASSIFICATION: False

COMPOUND: C(=Nc1ccccc1-c1ccccc1N=Cc1ccccc1)c1ccccc1
CLASSIFICATION: False

COMPOUND: CC(=N\[O-])/C(C)=N/O.CC(=N\[O-])/C(C)=N/O.CC(=O)[O-].CC(=O)[O-].O.[Rh+2].[Rh+2]
CLASSIFICATION: False

## Input Just curious, what result did "COCCCNC(=S)N/N=C/c1cc(Cl)cc(Cl)c1O" get here?
## Output False

## Input Just curious, what result did "CCCCCCC(/C=C/c1ccc(Cl)c(Cl)c1)=N\Nc1ccccc1" get here?
## Output False

## Input Just curious, what result did CC(C)N1C(=O)C(C#N)=C(c2ccccc2)SC1c1ccccc1 (stereo unspecified) get here?
## Output False

## Input Just curious, what result did CC(=O)NC1C([Se][As](C)C)OC(COC(C)=O)C(OC(C)=O)C1OC(C)=O (stereo unspecified) get here?
## Output False

## Input Just curious, what result did "COc1ccccc1NC(=O)N(CCCl)N=O" get here?
## Output True

## Input Just curious, what result did CC1CP(c2ccccc2)(c2ccccc2)(c2ccccc2)OC1(C(=O)c1ccccc1)c1ccccc1 (stereo unspecified) get here?
## Output False
